Biological target: human PTP1B (Homo sapiens, UniProt P18031)
Construct: human PTP1B (amino acid residues 1-321); made in house; host or cells: E. coli BL21(DE3)
Sequence (P18031 1-321): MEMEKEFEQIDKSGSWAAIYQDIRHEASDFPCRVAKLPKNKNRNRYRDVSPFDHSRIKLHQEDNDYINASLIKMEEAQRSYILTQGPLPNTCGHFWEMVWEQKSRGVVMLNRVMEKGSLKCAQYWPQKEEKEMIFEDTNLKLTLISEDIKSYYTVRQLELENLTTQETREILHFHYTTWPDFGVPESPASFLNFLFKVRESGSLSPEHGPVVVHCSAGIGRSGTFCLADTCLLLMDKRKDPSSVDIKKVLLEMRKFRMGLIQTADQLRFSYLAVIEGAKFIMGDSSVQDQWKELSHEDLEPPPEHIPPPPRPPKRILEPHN
Experiment: PTP1B assay, pNPP hydrolysis, assayed exactly as for PTP1
Type: biochemical
Conditions: Conc 100 uM, Table 2, read-out: PTP1B Inhib PTP1B. % Inhib
endpoint_name: inhibition at 100 µM (%)

Examples with answers:
CCCCCNC(=O)C(Cc1ccc(OC(COO)COO)cc1)NC(=O)N(Cc1ccccc1)Cc1ccccc1 (centres unmarked)    95
CCCCCNC(=O)C(Cc1ccc(OC(COO)COO)cc1)NC(=O)N(Cc1ccccc1)C(CCc1ccccc1)CC(=O)O (centres unmarked)    42
CCCCCNC(=O)C(Cc1ccc(OCCOO)c(COO)c1)NC(=O)C(Cc1ccccc1)NC(=O)CCCc1ccccc1 (centres unmarked)    96
CCCCCNC(=O)C(Cc1ccc(OCCOO)c(COO)c1)NC(=O)C(Cc1ccccc1)NC(=O)Cc1ccc(C)cc1 (centres unmarked)    98

I = CC(C)(C)OC(=O)N[C@@H](Cc1ccccc1)C(=O)N[C@@H](Cc1ccc(OCC(=O)O)c(C(=O)O)c1)C(=O)NCCCCc1ccccc1 [drawing 221]
II = CCCCCNC(=O)[C@H](Cc1ccc(OCC(=O)O)c(C(=O)NO)c1)NC(=O)[C@H](Cc1ccccc1)NC(=O)OC(C)(C)C
Just curious, which one has the larger inhibition at 100 µM reading, I or II ? Pick one and reply with its label. I
(I: 98%, II: 54%)
